assay: chemical genetic growth profiling, strain panel (AID 1159580);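 further: tested at 20 µM; growth read once vehicle control cultures reached saturation at 30 °C; lower values mean less growth of the strain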; settings: S. cerevisiae deletion strains, growth OD, locus YJR066W, strain TOR1
Among all 5,500 compounds or so, about 2,000 (36%) were called active. Another 18% or so got no clear call; they are omitted. No stated cut-off is given here; in the data, active means normalized growth mostly below about 0.91 (no sharp cut-off); inconclusive means no clear call, values can overlap the other calls; inactive means mostly above about 0.92. Some of the results follow.
Write down one outcome, taken from T = active, F = inactive

Here's what some known entries look like.
| Compound | Assigned category |
| --- | --- |
| Cc1onc(-c2c(Cl)cccc2Cl)c1C(=O)NNc1c(Cl)cccc1Cl | F |
| O=c1cc(-c2ccccc2O)oc2cc(O)ccc12 | F |
| O=c1cc[nH]c(=S)[nH]1 | F |
| COC(=O)c1sccc1-c1ccc(/C=C/[N+](=O)[O-])o1 | T |
| C[C@@H]1C(=O)OC2[C@H](O)C34[C@@H]5OC(=O)[C@@]3(O[C@@H]3OC(=O)[C@H](O)[C@@]34[C@H](C(C)(C)C)[C@H]5O)[C@]21O (some centres undefined) | F |
| Cc1onc(-c2c(F)cccc2Cl)c1C(=O)ON=C1C2CC3CC(C2)CC1C3 | F |
| CC1=CC2C(CC1=O)C(C)=CCC2C(C)C (centres undefined) | F |
| CC(C)(C)c1ccc(C(=O)NNc2c(Cl)cccc2Cl)cc1 | F |

Could you now consider this next compound?
What outcome does the record of this test show for C[N+]1(C)C2CC(OC(=O)[C@@H](CO)c3ccccc3)CC1C1OC12 (some centres undefined) ?
F
